- experiment-summary: Octanol/water partition coefficient, log P of the compound
- Assay type: physicochemical
metric: logP
Respond numerically, and do not add a unit to the figure.

1) COc1cc2c(cc1OC)CN(CCc1ccc(NC(=O)c3ccccc3NC(=O)c3ccc(C(=O)O)cc3)cc1)CC2 : 3.16
2) COc1cc2c(cc1OC)CN(CCc1ccc(NC(=O)c3ccccc3NC(=O)c3ccc(C(=O)NCCNC(=O)CC45CC6CC(CC(C6)C4)C5)cc3)cc1)CC2 : 7.9
3) COC(=O)c1ccc(C(=O)Nc2ccccc2C(=O)Nc2ccc(CCN3CCc4cc(OC)c(OC)cc4C3)cc2)cc1 : 5.77
4) COc1cc2c(cc1OC)CN(CCc1ccc(NC(=O)c3ccccc3NC(=O)c3ccc(C(=O)N4CCN(C(=O)CC56CC7CC(CC(C7)C5)C6)CC4)cc3)cc1)CC2 : 8.04

Provide measured logP value, entry: COc1ccc(C(=O)Nc2ccccc2C(=O)Nc2ccc(CCN3CCc4cc(OC)c(OC)cc4C3)cc2)cc1OC
5.85

Provide measured logP value, entry: COc1cc2c(cc1OC)CN(CCc1ccc(NC(=O)c3ccccc3NC(=O)c3ccccc3N)cc1)CC2
5.78

Provide measured logP value, entry: COc1cc2c(cc1OC)CN(CCc1ccc(NC(=O)c3ccccc3NC(=O)C34CC5CC(CC(C5)C3)C4)cc1)CC2
6.83

----------
Listed molecules paired with reported viability at 5 µM
- Tested on: SW620/AD300
- experiment-summary: Induction of doxorubicin induced apoptosis in human SW620/AD300 cells assessed as viable cells at 5 uM incubated for 48 hrs in presence of doxorubicin by annexin V-FITC and PI staining based flow cytometry analysis (reference value: 92.8%)
- Format: functional
- condition: read-out: Activity
The reply should be a number in %, with the unit left off.

1. COc1cc2c(cc1OC)CN(CCc1ccc(NC(=O)c3ccccc3NC(=O)c3ccc(C(=O)N4CCN(C(=O)CC56CC7CC(CC(C7)C5)C6)CC4)cc3)cc1)CC2 : 42.1
2. COc1cc2c(cc1OC)CN(CCc1ccc(NC(=O)c3ccccc3NC(=O)C34CC5CC(CC(C5)C3)C4)cc1)CC2 : 59.2
3. COc1cc2c(cc1OC)CN(CCc1ccc(NC(=O)c3ccccc3NC(=O)CC34CC5CC(CC(C5)C3)C4)cc1)CC2 : 70.2

Please look at the following molecule next.
Provide measured viability at 5 µM value, entry: COc1ccc(C(=O)Nc2ccccc2C(=O)Nc2ccc(CCN3CCc4cc(OC)c(OC)cc4C3)cc2)cc1OC
57.3

----------
- Test system: SW620/AD300
- experiment-summary: Induction of doxorubicin induced apoptosis in human SW620/AD300 cells assessed as necrotic cells at 5 uM incubated for 48 hrs in presence of doxorubicin by annexin V-FITC and PI staining based flow cytometry analysis (reference value: 0.59%)
- Type: functional
metric: Activity (%)
The reply should be a number in %, with the unit left off.

1. COc1ccc(C(=O)Nc2ccccc2C(=O)Nc2ccc(CCN3CCc4cc(OC)c(OC)cc4C3)cc2)cc1OC : 0.56
2. COc1cc2c(cc1OC)CN(CCc1ccc(NC(=O)c3ccccc3NC(=O)CC34CC5CC(CC(C5)C3)C4)cc1)CC2 : 1.13
3. COc1cc2c(cc1OC)CN(CCc1ccc(NC(=O)c3ccccc3NC(=O)c3ccc(C(=O)N4CCN(C(=O)CC56CC7CC(CC(C7)C5)C6)CC4)cc3)cc1)CC2 : 1.17

Please look at the following compound next.
Provide measured Activity value, entry: COc1cc2c(cc1OC)CN(CCc1ccc(NC(=O)c3ccccc3NC(=O)C34CC5CC(CC(C5)C3)C4)cc1)CC2
0.29
